# System: asymmetric di-methyl PABP1 in RKO cells
# Assay Name: In Cell Western (ICW) for asymmetric di-methyl PABP1 and DNA content in RKO cells
# Type: cell-based
# Measurement Parameters: Homo sapiens, RKO, In Cell Western
pIC50: −log10 of the molar value.
Quick reference: pIC50 of the listed items.

>  <Compound>
CNCCN(C)Cc1cccc(-c2cc(C(=O)NCc3cnc[nH]3)c3cnn(C(C)C)c3n2)c1 [Compound 231]

>  <pIC50>
4.70

$$$$
>  <Compound>
CC(C)n1ncc2c(C(=O)NCc3cncn3C)cc(-c3cccc(CN(C)CCN)c3)nc21 [Compound 185]

>  <pIC50>
4.97

$$$$
>  <Compound>
CNCCN(C)Cc1cccc(-c2nc(N(C)C3CCOCC3)c3cnn(C4CC4)c3n2)c1 [Compound 109]

>  <pIC50>
4.97

$$$$
>  <Compound>
CNCCN(C)Cc1cccc(-c2cc(NC(=O)NC(C)C)c3cnn(C(C)C)c3n2)c1 [Compound 85]

>  <pIC50>
5.59

$$$$

---

Record: pIC50 reported on UniProt:O14744.
Sequence (O14744 whole entry, species assumed): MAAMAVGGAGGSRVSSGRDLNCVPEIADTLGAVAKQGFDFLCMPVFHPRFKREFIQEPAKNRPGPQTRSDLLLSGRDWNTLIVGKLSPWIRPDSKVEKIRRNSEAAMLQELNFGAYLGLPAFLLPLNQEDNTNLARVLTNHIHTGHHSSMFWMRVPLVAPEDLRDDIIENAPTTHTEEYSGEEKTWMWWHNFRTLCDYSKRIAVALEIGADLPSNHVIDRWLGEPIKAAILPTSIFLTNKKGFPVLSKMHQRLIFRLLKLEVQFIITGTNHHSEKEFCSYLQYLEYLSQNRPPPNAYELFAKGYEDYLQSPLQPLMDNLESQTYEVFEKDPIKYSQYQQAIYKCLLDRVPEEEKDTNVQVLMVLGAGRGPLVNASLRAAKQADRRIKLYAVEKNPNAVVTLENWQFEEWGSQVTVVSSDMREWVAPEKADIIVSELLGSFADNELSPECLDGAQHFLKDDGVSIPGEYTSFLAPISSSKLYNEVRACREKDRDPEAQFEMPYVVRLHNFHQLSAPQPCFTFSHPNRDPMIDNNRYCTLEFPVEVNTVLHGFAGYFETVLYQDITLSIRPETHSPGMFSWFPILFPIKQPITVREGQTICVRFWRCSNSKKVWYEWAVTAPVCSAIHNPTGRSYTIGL
Sequence (Q9BQA1 whole entry partner, species assumed): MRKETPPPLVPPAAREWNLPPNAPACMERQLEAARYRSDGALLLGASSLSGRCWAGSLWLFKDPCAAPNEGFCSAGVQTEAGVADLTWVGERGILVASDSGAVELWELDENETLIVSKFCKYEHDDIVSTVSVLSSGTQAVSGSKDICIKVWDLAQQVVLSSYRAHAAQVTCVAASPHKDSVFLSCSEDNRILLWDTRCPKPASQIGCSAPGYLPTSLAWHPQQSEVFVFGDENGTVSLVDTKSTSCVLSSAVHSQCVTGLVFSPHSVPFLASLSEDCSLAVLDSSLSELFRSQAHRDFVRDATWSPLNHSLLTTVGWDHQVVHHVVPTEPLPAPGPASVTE
pIC50: −log10 of the molar value.
Readout Type: pIC50

>  <Molecule>
NCCNCc1ccc(-c2ccc3ncn(Cc4cccc(C(=O)NC5CCCc6ccccc65)c4)c3c2)cc1 (centres unmarked)

>  <Readout Type>
pIC50

>  <Value Reported>
7.60

$$$$
>  <Molecule>
Cc1cccc(CCn2cnc3ccc(-c4ccc(CNCCN)cc4)cc32)c1

>  <Readout Type>
pIC50

>  <Value Reported>
6.55

$$$$
>  <Molecule>
NCCNCc1ccc(-c2ccc3ncn(-c4ccccc4)c3c2)cc1

>  <Readout Type>
pIC50

>  <Value Reported>
6.44

$$$$
>  <Molecule>
Cc1cc(C)c(CNC(=O)c2cc(-c3cccc(CN(C)CCN)c3)nc3c2cnn3C(C)C)c(=O)[nH]1

>  <Readout Type>
pIC50

>  <Value Reported>
4.81

$$$$
>  <Molecule>
NCCNCc1ccc(-c2ccc3ncn(Cc4ccc(C(=O)N5CCCC5)cc4)c3c2)cc1

>  <Readout Type>
pIC50

>  <Value Reported>
7.00

$$$$
>  <Molecule>
Cc1ccc(-n2cnc3cc(-c4ccc(CNCCN)cc4)ccc32)cc1

>  <Readout Type>
pIC50

>  <Value Reported>
6.43

$$$$
>  <Molecule>
CC(C)n1ncc2c(C(=O)N(C)CC3CCOCC3)cc(-c3cccc(CN(C)CCN)c3)nc21

>  <Readout Type>
pIC50

>  <Value Reported>
4.30

$$$$
>  <Molecule>
Cc1cc(C)c(CNC(=O)c2ccnc(-c3cccc(CN(C)CCN)c3)c2)c(=O)[nH]1

>  <Readout Type>
pIC50

>  <Value Reported>
4.61

$$$$

---

# Tested on: asymmetric di-methyl PABP1 in RKO cells
# Assay Name: In Cell Western (ICW) for asymmetric di-methyl PABP1 and DNA content in RKO cells
# Format: cell-based
# Measurement Parameters: Homo sapiens, RKO, In Cell Western
pIC50: −log10 of the molar value.
Quick reference: pIC50 of the listed items.

>  <Chemical Structure>
CNCCN(C)Cc1cccc(-c2cc(OC3CCOCC3)c3cnn(C(C)C)c3n2)c1

>  <pIC50>
5.22

$$$$
>  <Chemical Structure>
CN(CCN)Cc1cccc(-c2nc(N(C)C3CCOCC3)c3cnn(C4CC4)c3n2)c1

>  <pIC50>
5.86

$$$$
>  <Chemical Structure>
CC(C)n1ncc2c(C(=O)NC3CC3)cc(-c3cccc(CN(C)CCN)c3)nc21

>  <pIC50>
5.70

$$$$
>  <Chemical Structure>
CN(CCN)Cc1cccc(-c2cc(C(=O)NC3CCOCC3)c3cnn(C)c3n2)c1

>  <pIC50>
4.87

$$$$
>  <Chemical Structure>
CNCCN(C)Cc1cccc(-c2nc(NC3CC3)c3cnn(C4CC4)c3n2)c1

>  <pIC50>
4.70

$$$$
>  <Chemical Structure>
CNCCN(C)Cc1cccc(-c2cc(-c3ccc(F)cc3)c3cnn(C(C)C)c3n2)c1

>  <pIC50>
4.70

$$$$
>  <Chemical Structure>
CNCCN(C)Cc1cccc(-c2cc(C(=O)NC3CC3)c3cnn(C(C)C)c3n2)c1

>  <pIC50>
5.72

$$$$
>  <Chemical Structure>
CC(C)n1ncc2c(-c3ccco3)cc(-c3cccc(CN(C)CCN)c3)nc21

>  <pIC50>
4.70

$$$$
>  <Chemical Structure>
CCS(=O)(=O)Nc1cc(-c2cccc(CN(C)CCN)c2)nc2c1cnn2C(C)C

>  <pIC50>
4.92

$$$$
>  <Chemical Structure>
CC(C)n1ncc2c(C(=O)NCc3ccccc3F)cc(-c3cccc(CNCCN)c3)nc21

>  <pIC50>
4.70

$$$$
>  <Chemical Structure>
CNCCN(C)Cc1cccc(-c2cc(C(=O)NCc3nccn3C)c3cnn(C(C)C)c3n2)c1

>  <pIC50>
5.74

$$$$
>  <Chemical Structure>
CNCCN(C)Cc1cccc(-c2cc(NS(=O)(=O)N(C)C)c3cnn(C(C)C)c3n2)c1

>  <pIC50>
5.31

$$$$
>  <Chemical Structure>
CC(C)n1ncc2c(C(=O)NCC(F)(F)F)cc(-c3cccc(CN(C)CCN)c3)nc21

>  <pIC50>
5.42

$$$$
>  <Chemical Structure>
CNCCN(C)Cc1cccc(-c2nc(C(=O)NCc3cn4ccsc4n3)c3cnn(C4CC4)c3n2)c1

>  <pIC50>
6.05

$$$$
>  <Chemical Structure>
CCNC(=O)c1cc(-c2cccc(CN(C)CCNC)c2)nc2c1cnn2C(C)C

>  <pIC50>
5.41

$$$$
>  <Chemical Structure>
Cc1[nH]c2ncc(-c3ccc(CNCCN)cc3)cc2c1C

>  <pIC50>
4.90

$$$$
>  <Chemical Structure>
CNCCN(C)Cc1cccc(-c2cc(NC3COC3)c3cnn(C(C)C)c3n2)c1

>  <pIC50>
5.49

$$$$

---

# System: asymmetric di-methyl PABP1 in RKO cells
# Assay Name: In Cell Western (ICW) for asymmetric di-methyl PABP1 and DNA content in RKO cells
# Format: cell-based
# Measurement Parameters: Homo sapiens, RKO, In Cell Western
Quick reference: IC50 of the listed items.
Readout Type: IC50 (µM)

>  <Chemical Structure>
CNCCN(C)Cc1cccc(-c2cc(C(=O)NCC3CCOCC3)c3cnn(C4CC4)c3n2)c1

>  <Readout Type>
IC50

>  <Value Reported>
2.15

$$$$
>  <Chemical Structure>
CNC(=O)Nc1cc(-c2cccc(CN(C)CCN)c2)nc2c1cnn2C(C)C

>  <Readout Type>
IC50

>  <Value Reported>
10.8

$$$$
>  <Chemical Structure>
CC(C)n1ncc2c(NC(=O)OCc3ccccc3)cc(-c3cccc(CN(C)CCN)c3)nc21

>  <Readout Type>
IC50

>  <Value Reported>
13.3

$$$$
>  <Chemical Structure>
CNCCN(C)Cc1cccc(-c2cc(C(=O)NC3CCOCC3)c3cnn(C(C)C)c3n2)c1

>  <Readout Type>
IC50

>  <Value Reported>
0.843

$$$$

---

# Test system: asymmetric di-methyl PABP1 in RKO cells
# Assay Name: In Cell Western (ICW) for asymmetric di-methyl PABP1 and DNA content in RKO cells
# Format: cell-based
# Measurement Parameters: Homo sapiens, RKO, In Cell Western
Quick reference: IC50 of the listed items.
Readout Type: IC50 (µM)

>  <Compound>
CNCCN(C)Cc1cccc(-c2cc(Oc3ccccc3)c3cnn(C(C)C)c3n2)c1 [Compound 45]

>  <Unit Label>
µM

>  <Value Reported>
20

$$$$
>  <Compound>
CC(C)n1ncc2c(NC(=O)NC3CCOCC3)cc(-c3cccc(CN(C)CCN)c3)nc21 [Compound 175]

>  <Unit Label>
µM

>  <Value Reported>
11.5

$$$$
>  <Compound>
CC(C)n1cc2c(Cl)cc(-c3cccc(CN(C)CCN)c3)nc2n1 [Compound 59]

>  <Unit Label>
µM

>  <Value Reported>
15.5

$$$$
>  <Compound>
CC(C)n1ncc2c(C(=O)NC3CCOCC3)cc(-c3cccc(CN(C)CCN)c3)nc21 [Compound 148]

>  <Unit Label>
µM

>  <Value Reported>
0.972

$$$$
>  <Compound>
CNCCN(C)Cc1cccc(-c2cc(OC3CCOC3)c3cnn(C(C)C)c3n2)c1 (stereo not drawn) [Compound 102]

>  <Unit Label>
µM

>  <Value Reported>
10.9

$$$$
>  <Compound>
CC(C)n1ncc2c(C(=O)N3CCSCC3)cc(-c3cccc(CN(C)CCN)c3)nc21 [Compound 258]

>  <Unit Label>
µM

>  <Value Reported>
18.5

$$$$
>  <Compound>
CC(C)n1ncc2c(C(=O)N3CCOCC3)cc(-c3cccc(CN(C)CCN)c3)nc21 [Compound 279]

>  <Unit Label>
µM

>  <Value Reported>
18.7

$$$$
>  <Compound>
CNCCN(C)Cc1cccc(-c2ccc3cnn(C(C)C)c3n2)c1 [Compound 73]

>  <Unit Label>
µM

>  <Value Reported>
20

$$$$
>  <Compound>
CNCCN(C)Cc1cccc(-c2cc(C(=O)N[C@@H](C)c3ccccc3)c3cnn(Cc4ccncc4)c3n2)c1 [Compound 260]

>  <Unit Label>
µM

>  <Value Reported>
20

$$$$
>  <Compound>
CNCCN(C)Cc1cccc(-c2cc(NC(=O)NC)c3cnn(C(C)C)c3n2)c1 [Compound 138]

>  <Unit Label>
µM

>  <Value Reported>
7.74

$$$$
>  <Compound>
CNCCN(C)Cc1cccc(-c2cc(C(=O)NCC3CCOCC3)c3cnn(C(C)C)c3n2)c1 [Compound 105]

>  <Unit Label>
µM

>  <Value Reported>
1.36

$$$$
>  <Compound>
CNCCN(C)Cc1cccc(-c2cc(N3CCC3)c3cnn(C(C)C)c3n2)c1 [Compound 79]

>  <Unit Label>
µM

>  <Value Reported>
20

$$$$
>  <Compound>
CNCCN(C)Cc1cccc(-c2cc(NC)c3cnn(C(C)C)c3n2)c1 [Compound 121]

>  <Unit Label>
µM

>  <Value Reported>
7.45

$$$$
>  <Compound>
CCN(Cc1cccnc1)C(=O)c1cc(-c2cccc(CN(C)CCNC)c2)nc2c1cnn2C(C)C [Compound 254]

>  <Unit Label>
µM

>  <Value Reported>
5.52

$$$$
>  <Compound>
CCOC(=O)c1cc(-c2cccc(CN(C)CCNC)c2)nc2c1cnn2C(C)C [Compound 78]

>  <Unit Label>
µM

>  <Value Reported>
13

$$$$
>  <Compound>
CNCCN(C)Cc1cccc(-c2cc(NC3CCOCC3)c3cnn(C(C)C)c3n2)c1 [Compound 76]

>  <Unit Label>
µM

>  <Value Reported>
1.63

$$$$
>  <Compound>
CN(CCN)Cc1cccc(-c2cc(C(=O)NCC3CCOCC3)cc(N(C)CC3CC3)c2)c1 [Compound 208]

>  <Unit Label>
µM

>  <Value Reported>
5.54

$$$$
>  <Compound>
Cc1c(CNC(=O)c2cc(-c3cccc(CN(C)CCN)c3)nc3c2cnn3C(C)C)cnn1C [Compound 183]

>  <Unit Label>
µM

>  <Value Reported>
1.97

$$$$
>  <Compound>
CNCCN(C)Cc1cccc(-c2cc(C(=O)N(C)CC3CCOCC3)c3cnn(C(C)C)c3n2)c1 [Compound 298]

>  <Unit Label>
µM

>  <Value Reported>
9.62

$$$$
>  <Compound>
CNC(=O)c1cc(-c2cccc(CNCCN)c2)nc2c1cnn2C(C)C [Compound 311]

>  <Unit Label>
µM

>  <Value Reported>
14.2

$$$$
>  <Compound>
CN(CCN)Cc1cccc(-c2ccc(C(=O)NCC3CCOCC3)c(N(C)CC3CC3)c2)c1 [Compound 263]

>  <Unit Label>
µM

>  <Value Reported>
20

$$$$
>  <Compound>
CNCCN(C)Cc1cccc(-c2cc(C3=CCOCC3)c3cnn(C(C)C)c3n2)c1 [Compound 188]

>  <Unit Label>
µM

>  <Value Reported>
8.31

$$$$
>  <Compound>
CC(C)n1ncc2c(NC3CCOCC3)cc(-c3cccc(CN(C)CCN)c3)nc21 [Compound 101]

>  <Unit Label>
µM

>  <Value Reported>
6.31

$$$$
>  <Compound>
CNCCN(C)Cc1cccc(-c2cc(NC(=O)NC3CCOCC3)c3cnn(C(C)C)c3n2)c1 [Compound 133]

>  <Unit Label>
µM

>  <Value Reported>
11.5

$$$$
>  <Compound>
CNCCN(C)Cc1cccc(-c2cc(-c3cnn(C)c3)c3cnn(C(C)C)c3n2)c1 [Compound 49]

>  <Unit Label>
µM

>  <Value Reported>
1.29

$$$$
>  <Compound>
CNCCN(C)Cc1cccc(-c2cc(C(=O)NCc3cccc4ccnn34)c3cnn(C(C)C)c3n2)c1 [Compound 232]

>  <Unit Label>
µM

>  <Value Reported>
1.51

$$$$
>  <Compound>
CNCCN(C)Cc1cccc(-c2cc(C(=O)NC3CCOCC3)c3cnn(CC(F)(F)F)c3n2)c1 [Compound 270]

>  <Unit Label>
µM

>  <Value Reported>
5.14

$$$$
>  <Compound>
CNCCN(C)Cc1cccc(-c2cc(C(=O)NC3CCOCC3)c3cnn(C4CC4)c3n2)c1 [Compound 87]

>  <Unit Label>
µM

>  <Value Reported>
2.17

$$$$
>  <Compound>
CNCCN(C)Cc1cccc(-c2cc(C(=O)N3CCCCC3)c3cnn(C(C)C)c3n2)c1 [Compound 56]

>  <Unit Label>
µM

>  <Value Reported>
16.8

$$$$
>  <Compound>
CNCCN(C)Cc1cc(-c2cc(C(=O)NC3CCOCC3)c3cnn(C(C)C)c3n2)ccc1F [Compound 130]

>  <Unit Label>
µM

>  <Value Reported>
11.5

$$$$
>  <Compound>
CNCCN(C)Cc1cccc(-c2cc(N3CCC(OC)CC3)c3cnn(C(C)C)c3n2)c1 [Compound 51]

>  <Unit Label>
µM

>  <Value Reported>
5.39

$$$$
>  <Compound>
CNCCN(C)Cc1cccc(-c2cc(N3CCC(C#N)CC3)c3cnn(C(C)C)c3n2)c1 [Compound 93]

>  <Unit Label>
µM

>  <Value Reported>
1.65

$$$$
>  <Compound>
CC(C)n1ncc2c(C(=O)NCc3cnc[nH]3)cc(-c3cccc(CN(C)CCN)c3)nc21 [Compound 206]

>  <Unit Label>
µM

>  <Value Reported>
20

$$$$

Hello, the source for this data is patent US20170280720A1, in case you need it.
